- experimental-protocol: protein stability index of a GFP-peptide fusion (GPS, HEK-293T) (PSI 1-6); higher = more stable;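 further: 24-mer peptide tiles fused after GFP, lentivirally expressed, FACS-sorted into six equal bins by GFP/DsRed ratio, decoded by Illumina sequencing, PSI is the read-weighted mean bin number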
- experimental-setup: treatment: DMSO; c terminus: a fixed tail appended
measurement-label: protein stability index

>  <monomer-sequence>
NKKNILLRLLREEEYVAPPRGPLP [TRAF3IP2]

>  <quantitative-result>
2.44

$$$$
>  <monomer-sequence>
VKYPELVLEHSLDREEEAIHHLVL [PCDHGA10]

>  <quantitative-result>
2.6

$$$$
>  <monomer-sequence>
ILIIISVIVQIKQPRKKYVQRKSD [NETO1]

>  <quantitative-result>
2.86

$$$$
>  <monomer-sequence>
CPWHYLHLSGSHNTLAPTCFKAKL [RSPH3]

>  <quantitative-result>
2.35

$$$$

----------
The following sequences are listed with their measured protein stability index values.
- experimental-protocol: protein stability index of a GFP-peptide fusion (GPS, HEK-293T) (PSI 1-6); higher = more stable
- experimental-setup: treatment: MLN4924 1 uM, 8 h; c terminus: a fixed tail appended

>  <monomer-sequence>
SDYFCAMFTSELSEKGKPYVDIQG [KLHL12]

>  <protein stability index>
2.91

$$$$
>  <monomer-sequence>
IVAVIDSAQLQELVCHVMMGNLVM [INTS3]

>  <protein stability index>
3.05

$$$$
>  <monomer-sequence>
GKTAASWCLHVNNWLQVSFTAKHA [FSD1]

>  <protein stability index>
3.09

$$$$

----------
- experimental-protocol: protein stability index of a GFP-peptide fusion (GPS, HEK-293T) (PSI 1-6); higher = more stable
- experimental-setup: treatment: MLN4924 1 uM, 8 h; c terminus: a fixed tail appended
Given measured protein stability index, output satisfied if it is greater than or equal to 3 and not satisfied if not.

>  <monomer-sequence>
DATQEYKEKLQKCLEPLEQKLQEI [TRIM39]

>  <group-label>
satisfied

$$$$
>  <monomer-sequence>
CIGQRRFHTMDELVEHYKKAPIFT [NCK2]

>  <group-label>
not satisfied

$$$$
>  <monomer-sequence>
FNNVVEQNFKNRESYPEDTVFYIP [DLC1]

>  <group-label>
satisfied

$$$$
>  <monomer-sequence>
REISETEAKALLKERQKKDNHNLI [TFE3]

>  <group-label>
satisfied

$$$$
>  <monomer-sequence>
ENYLNRCMDQERLRRESTSQKEMD [FCHO1]

>  <group-label>
satisfied

$$$$
>  <monomer-sequence>
FAFSNGYLASLCMCFGPKKVKPAE [SLC29A1]

>  <group-label>
not satisfied

$$$$
>  <monomer-sequence>
TQCSEEDQCKINKQIYNLIHLDPR [FEM1B]

>  <group-label>
satisfied

$$$$
>  <monomer-sequence>
PARAGSEVEWTEDLALDLGPQSRE [C2CD2L]

>  <group-label>
satisfied

$$$$
>  <monomer-sequence>
LCDVTLMPGDTDDAFPVHRVMMAS [KLHL13]

>  <group-label>
satisfied

$$$$
>  <monomer-sequence>
HHKVYDLTKFLEEHPGGEEVLREQ [CYB5A]

>  <group-label>
satisfied

$$$$
>  <monomer-sequence>
GYWRVRLWNGDKYAATTTPFTPLH [TRIM39]

>  <group-label>
not satisfied

$$$$
>  <monomer-sequence>
QQLLPPFPSLHQSLPQNQCYMATT [EHMT1]

>  <group-label>
satisfied

$$$$
>  <monomer-sequence>
FSINSRLASSLGNLNAATDDPENK [CDC14A]

>  <group-label>
satisfied

$$$$
>  <monomer-sequence>
MPEERASKYENYFSASERLSLKRE [HESX1]

>  <group-label>
satisfied

$$$$
>  <monomer-sequence>
RTVDGSPMMKAAMYSVEITVEKDK [PALM]

>  <group-label>
satisfied

$$$$
>  <monomer-sequence>
DPVVNGERSGCALTDAVAPGNKGR [TCF25]

>  <group-label>
satisfied

$$$$
